Experiment: yeast display, Sf9 membrane polyspecificity reagent, FACS + sequencing; frameworks hold sequencing errors
Measured metric: polyreactivity (PSR sort gate)

The cases that follow already have their polyreactivity (PSR sort gate) on record.
[[record]]
polymer_sequence = "QVQLVESGGCLVPAGGSLRLSCAASGHTFSSYAMGWYRQAPGKERELVAAISVSATRTYYADSVKGRFTISRDNAKNTVYLQMNSLKPEDTAVFYCAARPVQFTYGYWGQGTQVTVSS"
measured_metric = "polyreactivity (PSR sort gate)"
readout_value = "high polyreactivity"

[[record]]
polymer_sequence = "QVQLVESGGGLVQAGGSLRLSCAASGRTFGYYAMGWYRQAPGKERELVAAISWRTVSTHYADSVKGRFTISRDNAKNTVYLQMNSLKPEDTAVYYCAARWGKIRGFHLDYWGQGTQVTVSS"
measured_metric = "polyreactivity (PSR sort gate)"
readout_value = "high polyreactivity"

[[record]]
polymer_sequence = "QVQLVESGGGLVQAGGSLRLRCAASRRTLGVYALGWYRQAPGKERELVATITAGGSITSYADSVKGRFTISRDNAKNTVYLQMNTLKPEDTAVYYCAAEQGCSVLYDSWGQGTQVTVSS"
measured_metric = "polyreactivity (PSR sort gate)"
readout_value = "low polyreactivity"

[[record]]
polymer_sequence = "QVQLVESGGGLVQVGGSLRLICAASGGIFSGNAMGWYRQAPGKERELVAGITNGGRTTYADSVKGRFTISRDNAKNTVYLQMNSLKPEDTAVYYCAAGKIGRRGHQNRLDLDYWGQGTQVTVSS"
measured_metric = "polyreactivity (PSR sort gate)"
readout_value = "low polyreactivity"


--- query ---
(Q) polyreactivity (PSR sort gate) for `KVQLVESGGGLVQAGGSLRLSCAASGRIFYYNAMGWYRQAPGKERELVAVITGGGSTNYADSVKGRFTISRDNAKNTVYLQMNSLKPEDTAGYYCAARRAWGTKYHGYDYWGQGTQVNVSS` ?
(A) low polyreactivity
